# Target entity: angiotensin converting enzyme (EC 3.4.15.1) (Bos taurus)
# Sequence (P12820 29-1306): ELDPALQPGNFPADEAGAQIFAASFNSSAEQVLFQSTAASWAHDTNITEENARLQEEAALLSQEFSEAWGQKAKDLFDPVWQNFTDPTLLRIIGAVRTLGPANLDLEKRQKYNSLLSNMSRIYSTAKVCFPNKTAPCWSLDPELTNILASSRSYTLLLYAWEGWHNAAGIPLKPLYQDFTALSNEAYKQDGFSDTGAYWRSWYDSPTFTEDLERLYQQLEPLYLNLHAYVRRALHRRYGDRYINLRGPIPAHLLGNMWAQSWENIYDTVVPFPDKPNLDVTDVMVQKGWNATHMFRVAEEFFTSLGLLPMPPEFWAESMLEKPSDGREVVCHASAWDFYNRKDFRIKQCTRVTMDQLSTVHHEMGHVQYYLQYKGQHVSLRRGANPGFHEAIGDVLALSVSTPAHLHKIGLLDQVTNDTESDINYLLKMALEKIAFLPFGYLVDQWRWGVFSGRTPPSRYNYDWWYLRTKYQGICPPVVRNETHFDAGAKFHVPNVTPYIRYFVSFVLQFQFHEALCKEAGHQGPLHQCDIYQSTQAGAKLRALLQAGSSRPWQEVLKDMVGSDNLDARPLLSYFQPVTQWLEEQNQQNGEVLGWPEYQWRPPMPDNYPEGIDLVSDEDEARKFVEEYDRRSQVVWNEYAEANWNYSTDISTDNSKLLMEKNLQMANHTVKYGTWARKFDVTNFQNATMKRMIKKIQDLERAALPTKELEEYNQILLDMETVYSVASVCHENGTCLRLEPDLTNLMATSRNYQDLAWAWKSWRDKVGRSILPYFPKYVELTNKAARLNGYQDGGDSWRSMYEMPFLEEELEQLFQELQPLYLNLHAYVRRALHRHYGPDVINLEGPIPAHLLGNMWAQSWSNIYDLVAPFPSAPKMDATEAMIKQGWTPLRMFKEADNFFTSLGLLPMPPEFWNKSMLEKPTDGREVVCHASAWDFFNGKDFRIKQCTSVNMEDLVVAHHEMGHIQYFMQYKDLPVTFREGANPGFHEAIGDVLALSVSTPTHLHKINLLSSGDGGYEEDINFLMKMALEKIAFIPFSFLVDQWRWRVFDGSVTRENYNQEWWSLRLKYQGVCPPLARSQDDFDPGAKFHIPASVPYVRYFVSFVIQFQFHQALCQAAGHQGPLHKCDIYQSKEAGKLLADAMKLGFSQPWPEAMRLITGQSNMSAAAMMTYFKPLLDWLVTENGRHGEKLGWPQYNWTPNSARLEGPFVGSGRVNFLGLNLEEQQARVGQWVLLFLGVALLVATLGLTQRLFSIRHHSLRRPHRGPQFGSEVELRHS
pIC50: −log10 of the molar value.
Recorded endpoint: pIC50

structure_smiles_string=C[C@H](NC(=O)[C@@H]1CCCN1C(=O)[C@@H]1CCCN1C(=O)[C@@H](O)[C@H](N)Cc1ccccc1)C(N)=O obs_value="< 3.10"

Cited source: patent US5656603A
